Documented growth inhibition across a set of compounds
test: NCI Yeast Anticancer Drug Screen. Data for the rad50 strain (AID 155);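 also: 0% = growth of vehicle-only cultures of the same strain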; conditions: S. cerevisiae rad50 strain growth inhibition; at 5.0 µM (retest, dose inferred, filed as 0.5); active compounds read high
Compounds without any hit were thinned out: in the full panel of roughly 79,000, 15% have a hit.
Quick note: give the figure in %, leave out the unit.

compound=CCc1cccc(CC)c1N=Nc1c(N)nc(N)[nH]c1=O measured_number=-11
compound=COc1ccc(OP2(Oc3ccc(OC)cc3)=NP(Oc3ccc(OC)cc3)(Oc3ccc(OC)cc3)=NP(Oc3ccc(OC)cc3)(Oc3ccc(OC)cc3)=NP(Oc3ccc(OC)cc3)(Oc3ccc(OC)cc3)=N2)cc1 measured_number=41
compound=O=C1C=C(c2ccccc2)O/C1=C/C(=O)c1ccc(Cl)cc1 measured_number=32
compound=O=C(OCc1ccccc1CN1CCOCC1)c1cccc(Br)c1 measured_number=2
compound=O=C1C(c2ccc(Br)cc2)=[N+]([O-])c2ccccc21 measured_number=9

Task: State its growth inhibition: COc1cc2c(cc1O)-c1c(cnn1-c1ccccc1)CCC2
Result: -7

Task: State its growth inhibition: COc1cc(NCC(C)(O)CN2CCC(C)CC2C)c2ncccc2c1 (stereo unspecified)
Result: 14

###

Test: NCI Yeast Anticancer Drug Screen. Data for the cln2 rad14 strain (AID 165);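 also: 0% = growth equal to vehicle treated cultures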
Details: S. cerevisiae cln2 rad14 strain, at 50.0 µM, active compounds read high
Method: Growth inhibition of yeast strains with defined genetic alterations is measured as a screen for potential anti-cancer activity. Selected strains with alterations in DNA damage repair or cell cycle control were exposed to compounds and growth inhibition was measured relative to vehicle treated controls. The strain used in this assay is cln2 rad14
The panel holds about 79,000 compounds, 15% with a hit somewhere; the sample as a whole holds those more often.
Classify as follows. Reported growth inhibition greater than or equal to 80%: label 1. Reported growth inhibition below: label 0.

Below, 5 compounds whose answers are already recorded.
compound="Clc1ccc(C2SCc3nc4ccccc4n32)c(Cl)c1 (stereo unspecified)" cat="label 1"
compound="COC(=O)NC1CCCCCCCCCCC1I (stereo unspecified)" cat="label 0"
compound=CCCCCc1[nH]nc(C(=O)OC)c1N=NN1CCOCC1 cat="label 1"
compound=CCOC(=O)/C(=C/c1ccc(Cl)cc1)N(CC)CC cat="label 0"
compound=O=c1[nH]cnc2nc(I)[nH]c12 cat="label 0"

Task: Check the entry O=C(O/N=C(/Cc1ccccc1)c1ccccc1)c1ccccc1 : does growth inhibition equal or exceed 80%?
Result: label 0

Task: Check the entry O=C1C(=O)c2ccccc2C(O)=C1C(c1ccccc1)c1ccccc1 : does growth inhibition equal or exceed 80%?
Result: label 0

###

assay: NCI Yeast Anticancer Drug Screen. Data for the sgs1 mgt1 strain (AID 161);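 also: 0% = growth of cultures given vehicle only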; details: S. cerevisiae sgs1 mgt1 strain, at 50.0 µM, active compounds read high
About 79,000 compounds went through this panel and 15% of them were active in at least one assay; those are over-represented in the sample as a whole.
PARAMETER: growth inhibition (%)
Quick note: give the figure in %, leave out the unit.

compound=Nc1cc2[nH]c(=O)c3cc(Cl)ccc3c2cc1Cl parameter="growth inhibition" measured_number=47.6
compound="O=S1Nc2ccccc2S1 (configuration not stated)" parameter="growth inhibition" measured_number=99.2
compound=O=C1CSC(=S)N1Cc1ccccc1Cl parameter="growth inhibition" measured_number=97.9
compound=Clc1ccc(-c2nnc(-c3ccccn3)o2)c(Cl)c1 parameter="growth inhibition" measured_number=99.2
compound=COc1ccccc1C1(c2ccccc2OC)OC(=O)c2ccccc21 parameter="growth inhibition" measured_number=80.3
compound=O=C1/C(=N/N=C(c2ccccc2)c2ccccc2)c2ccccc2-c2ccccc21 parameter="growth inhibition" measured_number=-2.6

--- query ---
Task: State its growth inhibition: CCCCCCCCCCCCCCCCCC(=O)OCCOCCO
Result: -2.7
